Readings of GI50 for the listed molecules
# System: Malme-3M
# Procedure Text: NCI tumour cell line growth inhibition, 48 h
Activity calls are given as the source filed them. No stated cut-off is given here; in the data, active = GI50 up to about 1.1 µM and inactive = higher.
Test Readout: GI50

molecule=O=C1Cc2ccccc2CCc2ccsc21 study_target=Malme-3M result="> 100 µM (inactive)"
molecule=COC(=O)[C@H]1[C@@H](C(C)C)O[C@@H](C(C)C)O[C@H]1C(F)(F)F study_target=Malme-3M result="> 100 µM (inactive)"
molecule=Cc1cccc(NC(=O)CC#N)c1Cl study_target=Malme-3M result="> 100 µM (inactive)"
molecule=O=C1CCC(=O)C1=NNc1ccccc1 study_target=Malme-3M result="> 100 µM (inactive)"
molecule=CC1(C)COC(c2cccc(C3=NC(C)(C)CO3)c2Br)=N1 study_target=Malme-3M result="> 100 µM (inactive)"
molecule=CN(C)c1ccc(Cc2cc(C(C)(C)C)cc(C(C)(C)C)c2O)cc1 study_target=Malme-3M result="22.5 µM (inactive)"
molecule="C/C(=C/CC[C@](C)(OC1OC(CO)C(O)C(O)C1O)[C@H]1CC[C@]2(C)[C@@H]1CC[C@@H]1[C@@]3(C)CC[C@H](O)C(C)(C)[C@@H]3C[C@H](O)[C@]12CO)CO (some centres undefined)" study_target=Malme-3M result="> 100 µM (inactive)"
molecule=Cc1c(C)c2c(c(N)c1C#N)C(=O)N(NC(=O)c1ccccc1)C2=O study_target=Malme-3M result="> 100 µM (inactive)"
molecule="C=CC(OC(C)=O)c1ccc(OC(=O)C(C)C)c(OC)c1 (centres undefined)" study_target=Malme-3M result="1.94 µM (inactive)"
